- protocol details: Solubility assessment (saturated solutions, HPLC)
- Assay type: physicochemical
- conditions: water, thermodynamic from solid, water, 4 h; read-out: Solubility Water

{"columns": ["compound", "solubility at 4 h"],
 "data": [
  ["O=C(Nc1nc2cccc(-c3ccc(CN4CCS(=O)(=O)CC4)cc3)n2n1)C1CC1 [Reference form, reference compound]", "3000 µg/mL"]
]}

---

- protocol details: Solubility assessment (saturated solutions, HPLC)
- Type: physicochemical
- conditions: water, thermodynamic from solid, water, 1 h; read-out: Solubility Water

{"columns": ["molecule", "measure unit", "solubility at 1 h"],
 "data": [
  ["O=C(Nc1nc2cccc(-c3ccc(CN4CCS(=O)(=O)CC4)cc3)n2n1)C1CC1 [Reference form, reference compound]", "mg/mL", 0.81]
]}

---

- protocol details: Solubility assessment (saturated solutions, HPLC)
- Type: physicochemical
- conditions: simulated gastric fluid (SGF), simulated gastric fluid, thermodynamic from solid, simulated gastric fluid (SGF), 1 h; read-out: Solubility SGF
quantity name: solubility at 1 h (µg/mL)

{"columns": ["compound", "readout value"],
 "data": [
  ["O=C(Nc1nc2cccc(-c3ccc(CN4CCS(=O)(=O)CC4)cc3)n2n1)C1CC1 [Reference form, reference compound]", 70]
]}

---

- protocol details: Solubility assessment (saturated solutions, HPLC)
- Format: physicochemical
- conditions: water, thermodynamic from solid, Solubility Water

{"columns": ["compound", "solubility at 4 h (µg/mL)"],
 "data": [
  ["Cl.O=C(Nc1nc2cccc(-c3ccc(CN4CCS(=O)(=O)CC4)cc3)n2n1)C1CC1 [Form A]", 2430]
]}

---

Measured D90, listed per entry.
- protocol details: Particle size comparison experiment (laser particle size analyzer)
- Format: physicochemical
- conditions: wet method, Isopar G

{"columns": ["molecule", "measure unit", "D90"],
 "data": [
  ["Cl.O=C(Nc1nc2cccc(-c3ccc(CN4CCS(=O)(=O)CC4)cc3)n2n1)C1CC1 [Form A]", "μm", 62.08],
  ["O=C(Nc1nc2cccc(-c3ccc(CN4CCS(=O)(=O)CC4)cc3)n2n1)C1CC1 [Reference form, reference compound]", "μm", 12.35],
  ["Cl.O=C(Nc1nc2cccc(-c3ccc(CN4CCS(=O)(=O)CC4)cc3)n2n1)C1CC1 [Form C]", "μm", 66.16],
  ["Cl.O=C(Nc1nc2cccc(-c3ccc(CN4CCS(=O)(=O)CC4)cc3)n2n1)C1CC1 [Form D]", "μm", 82.42],
  ["Cl.O=C(Nc1nc2cccc(-c3ccc(CN4CCS(=O)(=O)CC4)cc3)n2n1)C1CC1 [Form B]", "μm", 110.4]
]}

---

- protocol details: Solubility assessment (saturated solutions, HPLC)
- Format: physicochemical
- conditions: simulated gastric fluid (SGF), simulated gastric fluid, thermodynamic from solid, simulated gastric fluid (SGF), 4 h; read-out: Solubility SGF

{"columns": ["molecule", "solubility at 4 h (µg/mL)"],
 "data": [
  ["O=C(Nc1nc2cccc(-c3ccc(CN4CCS(=O)(=O)CC4)cc3)n2n1)C1CC1 [Reference form, reference compound]", 920]
]}

---

- protocol details: Particle size comparison experiment (laser particle size analyzer)
- Format: physicochemical
- conditions: wet method, Isopar G
This listing pairs compounds with measured D10.
quantity name: D10 (μm)

{"columns": ["compound", "readout value"],
 "data": [
  ["Cl.O=C(Nc1nc2cccc(-c3ccc(CN4CCS(=O)(=O)CC4)cc3)n2n1)C1CC1 [Form D]", 5.77],
  ["O=C(Nc1nc2cccc(-c3ccc(CN4CCS(=O)(=O)CC4)cc3)n2n1)C1CC1 [Reference form, reference compound]", 2.95],
  ["Cl.O=C(Nc1nc2cccc(-c3ccc(CN4CCS(=O)(=O)CC4)cc3)n2n1)C1CC1 [Form C]", 1.87],
  ["Cl.O=C(Nc1nc2cccc(-c3ccc(CN4CCS(=O)(=O)CC4)cc3)n2n1)C1CC1 [Form A]", 1.72],
  ["Cl.O=C(Nc1nc2cccc(-c3ccc(CN4CCS(=O)(=O)CC4)cc3)n2n1)C1CC1 [Form B]", 2.53]
]}

---

- protocol details: Particle size comparison experiment (laser particle size analyzer)
- Format: physicochemical
- conditions: wet method, Isopar G
D50 values, listed per item
quantity name: D50 (μm)

{"columns": ["molecule", "measure unit", "readout value"],
 "data": [
  ["Cl.O=C(Nc1nc2cccc(-c3ccc(CN4CCS(=O)(=O)CC4)cc3)n2n1)C1CC1 [Form D]", "μm", 25.92],
  ["Cl.O=C(Nc1nc2cccc(-c3ccc(CN4CCS(=O)(=O)CC4)cc3)n2n1)C1CC1 [Form B]", "μm", 20.30],
  ["Cl.O=C(Nc1nc2cccc(-c3ccc(CN4CCS(=O)(=O)CC4)cc3)n2n1)C1CC1 [Form C]", "μm", 13.57],
  ["O=C(Nc1nc2cccc(-c3ccc(CN4CCS(=O)(=O)CC4)cc3)n2n1)C1CC1 [Reference form, reference compound]", "μm", 6.29],
  ["Cl.O=C(Nc1nc2cccc(-c3ccc(CN4CCS(=O)(=O)CC4)cc3)n2n1)C1CC1 [Form A]", "μm", 8.93]
]}

---

- protocol details: Solubility assessment (saturated solutions, HPLC)
- Assay type: physicochemical
- conditions: simulated gastric fluid, thermodynamic from solid, Solubility SGF
quantity name: solubility at 4 h (µg/mL)

{"columns": ["compound", "readout value"],
 "data": [
  ["Cl.O=C(Nc1nc2cccc(-c3ccc(CN4CCS(=O)(=O)CC4)cc3)n2n1)C1CC1 [Form A]", 1200]
]}

---

- protocol details: Particle size comparison experiment (laser particle size analyzer)
- Assay type: physicochemical
- conditions: wet method, Isopar G
The label 1 (yes) is reserved for MV (average particle size calculated by volume) strictly under 20 μm; 0 (no) covers values equal to or above it.

{"columns": ["compound", "answer label"],
 "data": [
  ["Cl.O=C(Nc1nc2cccc(-c3ccc(CN4CCS(=O)(=O)CC4)cc3)n2n1)C1CC1 [Form B]", "0 (no)"],
  ["Cl.O=C(Nc1nc2cccc(-c3ccc(CN4CCS(=O)(=O)CC4)cc3)n2n1)C1CC1 [Form A]", "0 (no)"],
  ["Cl.O=C(Nc1nc2cccc(-c3ccc(CN4CCS(=O)(=O)CC4)cc3)n2n1)C1CC1 [Form C]", "0 (no)"],
  ["O=C(Nc1nc2cccc(-c3ccc(CN4CCS(=O)(=O)CC4)cc3)n2n1)C1CC1 [Reference form, reference compound]", "1 (yes)"],
  ["Cl.O=C(Nc1nc2cccc(-c3ccc(CN4CCS(=O)(=O)CC4)cc3)n2n1)C1CC1 [Form D]", "0 (no)"]
]}
